As shown below, each of these compounds has a reported IC50 value.
TESTED SYSTEM: Human factor D (Homo sapiens (Human))
Format: biochemical

Some solved cases for reference:
| COMPOUND | MEASURED |
| --- | --- |
| CC(=O)c1cn(CC(=O)N2C[C@H](F)C[C@H]2C(=O)NCc2cccc(Cl)c2F)c2ccc(OC(=O)NC3CC3)cc12 [Compound 8] | < 1000 nM |
| CC(=O)c1cn(CC(=O)N2C[C@H](F)C[C@H]2C(=O)NCc2cccc(Cl)c2F)c2ccc(OC(=O)NCc3ncccn3)cc12 [Compound 13] | < 1000 nM |

Return reported IC50. Input compound: CC(=O)c1cn(CC(=O)N2C[C@H](F)C[C@H]2C(=O)NCc2cccc(Cl)c2F)c2cc(OC(=O)NCCP(=O)(O)O)ccc12 [Compound 6] < 1000 nM

---

TESTED SYSTEM: Human factor D (Homo sapiens (Human), UniProt P00746)
Sequence (P00746 26-253 limits assumed): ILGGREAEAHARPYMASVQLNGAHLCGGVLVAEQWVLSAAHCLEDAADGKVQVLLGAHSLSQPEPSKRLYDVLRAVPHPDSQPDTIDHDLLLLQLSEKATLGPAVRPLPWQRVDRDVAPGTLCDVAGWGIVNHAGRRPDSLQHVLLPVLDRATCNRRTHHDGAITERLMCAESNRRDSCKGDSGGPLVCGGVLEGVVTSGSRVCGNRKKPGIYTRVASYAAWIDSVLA
Format: biochemical
CONDITIONS: factor D 80 nM, substrate Z-L-Lys-SBzl 100 μM, DTNB, pH 7.5
MEASURED PROPERTY: IC50

Return reported IC50. Input compound: CC(=O)c1cn(CC(=O)N2C[C@H](F)C[C@H]2C(=O)NCc2cccc(Cl)c2F)c2ccc(OC(=O)N3CCNCC3)cc12 < 1 µM

---

TESTED SYSTEM: UniProt P00746
Format: biochemical
pIC50: −log10 of the molar value.
MEASURED PROPERTY: pIC50

| STRUCTURE AS SMILES | MEASURED PROPERTY | MEASURED |
| --- | --- | --- |
| CC(=O)c1cn(CC(=O)N2C[C@H](F)C[C@H]2C(=O)NCc2cccc(Cl)c2F)c2cc(OC(=O)NCc3cscn3)ccc12 | pIC50 | > 6.00 |
| CC(=O)c1cn(CC(=O)N2C[C@H](F)C[C@H]2C(=O)NCc2cccc(Cl)c2F)c2ccc(OC(=O)NCCc3nn[nH]n3)cc12 | pIC50 | > 6.00 |

Then this molecule:
Return reported pIC50. Input molecule: CC(=O)c1cn(CC(=O)N2C[C@H](F)C[C@H]2C(=O)NCc2cccc(Cl)c2F)c2cc(OC(=O)NCCc3nn[nH]n3)ccc12 > 6.00
